- tested.system: T1, human CD203c expressed on the surface of KU812 cells (human, UniProt O14638 1-875)
- T1 construct: whole, on cells; also called cell-surface CD203c; cell surface CD203c on KU812 cells
- T1 sequence (looked up): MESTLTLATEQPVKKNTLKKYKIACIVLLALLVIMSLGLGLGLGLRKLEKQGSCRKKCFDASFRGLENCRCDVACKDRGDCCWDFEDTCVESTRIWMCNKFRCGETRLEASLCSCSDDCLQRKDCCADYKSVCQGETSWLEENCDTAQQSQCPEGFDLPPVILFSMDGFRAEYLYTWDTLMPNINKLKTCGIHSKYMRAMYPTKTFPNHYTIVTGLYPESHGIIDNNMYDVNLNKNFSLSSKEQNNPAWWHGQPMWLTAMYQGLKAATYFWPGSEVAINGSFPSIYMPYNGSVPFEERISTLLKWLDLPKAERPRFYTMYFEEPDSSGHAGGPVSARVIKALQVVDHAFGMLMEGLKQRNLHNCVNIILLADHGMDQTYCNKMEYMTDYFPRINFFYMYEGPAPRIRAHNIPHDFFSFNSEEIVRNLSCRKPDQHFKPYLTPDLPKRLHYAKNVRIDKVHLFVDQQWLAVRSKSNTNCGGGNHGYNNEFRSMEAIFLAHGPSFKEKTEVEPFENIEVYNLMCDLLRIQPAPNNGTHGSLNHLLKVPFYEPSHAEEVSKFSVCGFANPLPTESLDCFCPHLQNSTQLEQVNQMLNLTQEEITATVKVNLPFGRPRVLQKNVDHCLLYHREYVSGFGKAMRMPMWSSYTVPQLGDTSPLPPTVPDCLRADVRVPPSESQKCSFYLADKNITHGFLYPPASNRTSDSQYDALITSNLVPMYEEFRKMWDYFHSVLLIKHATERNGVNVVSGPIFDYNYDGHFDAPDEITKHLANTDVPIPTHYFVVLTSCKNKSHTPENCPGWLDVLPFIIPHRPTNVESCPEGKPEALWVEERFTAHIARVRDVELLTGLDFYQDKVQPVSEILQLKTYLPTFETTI
- measurement.protocol: flow cytometry on KU812 cells, MFI (530/30 - 488nm) of live cells
measure: binding result

- binder: "A5 (antibody, V domains shown, also called variant A5; A5 VH domain) VH: EVQLVQSGAEVKKPGESLKISCKGSGYRFSSYRIGWVRQMPGKGLEWMGEIYPGDSKTRYSPSFQGQVTISADKSISTAYLQWSSLKASDTAMYYCARKDYYYYAMDVWGQGTTVTVSS VL: DIQMTQSPSSLSASVGDRVTITCRASQGIRTNLAWFQQKPGKAPKSLIYAASSLQSGVPSRFSGSGSGTDFTLTISSLQPEDFATYYCQQYNSYPRTFGGGTKVEIK"
  result: "binds"
- binder: "10 (antibody, V domains shown, also called variant 10; 10 VH domain) VH: EVQLVQSGAEVKKPGESLKISCKGSGYRFTSYWIGWVRQMPGKGLEWMGIIYPGDSDTRYSPSFQGQVTISADKSISTAYLQWSSLKASDTAMYYCARKDYYYGAMDVWGQGTTVTVSS VL: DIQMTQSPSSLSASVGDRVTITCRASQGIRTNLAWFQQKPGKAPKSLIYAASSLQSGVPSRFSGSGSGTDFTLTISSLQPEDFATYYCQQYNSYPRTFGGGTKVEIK"
  result: "binds"
- binder: "17 (antibody, V domains shown, also called variant 17; 17 VH domain) VH: EVQLVQSGAEVKKPGESLKISCKGSGYRFTSYWIGWVRQMPGKGLEWMGIIYPGDSDTRYSPSFQGQVTISADKSISTAYLQWSSLKASDTAMYYCARKDYYYNAMPVWGQGTTVTVSS VL: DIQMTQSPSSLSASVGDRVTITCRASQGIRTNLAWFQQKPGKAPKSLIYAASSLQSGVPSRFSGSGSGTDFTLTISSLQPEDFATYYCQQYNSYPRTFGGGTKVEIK"
  result: "binds"
